- method notes: VSVG counterscreen qHTS to identify inhibitors of SARS-CoV-2 cell entry (AID 1645847); also: nearly all actives have a fitted effect of over 65% in size
- experimental conditions: VSV-G pseudotyped particle entry, luciferase; series mostly up to 57.2 µM
Results filed as inconclusive are left out. Activity calls are given as the source filed them. Calls follow the shape of the full dose curve.
Outcomes: yes (1) = active, no (0) = inactive

compound	group
Nc1ccn([C@@H]2C(F)=C(CO)[C@@H](O)[C@H]2O)c(=O)n1	yes (1)
CON(C)C(=O)N1N=C(c2cc(F)ccc2F)S[C@@]1(CCCN)c1ccccc1	yes (1)
CS(=O)(=O)c1ccc(-c2cnc(NCc3ccco3)n3cnnc23)cc1	no (0)
Nc1nc(Cl)nc2c1ncn2C1CC(O)C(CO)O1 (centres undefined)	yes (1)
O=c1[nH]c([C@@H]2CCCN2)nc2c1oc1ccc(Cl)cc12	yes (1)
Cc1cncc(CN2CCC(=C3c4ccc(Cl)cc4CCc4cccnc43)CC2)c1	yes (1)
CC[C@@]1(O)C(=O)OCc2c1cc1n(c2=O)Cc2cc3c([N+](=O)[O-])cccc3nc2-1	yes (1)
Cc1c(N)nc(C(CC(N)=O)NCC(N)C(N)=O)nc1C(=O)NC(C(=O)NC(C)C(O)C(C)C(=O)NC(C(=O)NCCc1nc(-c2nc(C(=O)NCCCN[C@@H](C)c3ccccc3)cs2)cs1)C(C)O)C(O[C@@H]1O[C@@H](CO)[C@@H](O)[C@H](O)[C@@H]1O[C@H]1O[C@H](CO)[C@@H](O)[C@H](OC(N)=O)[C@@H]1O)c1cnc[nH]1 (some centres undefined)	yes (1)
C=C1C/C(=C\C=C2/CCC[C@]3(C)[C@@H]([C@H](C)/C=C/C(C)C(C)C)CC[C@@H]23)[C@@H](O)C[C@@H]1O (some centres undefined)	yes (1)
C=C1CC[C@H](O)C/C1=C\C=C1/CCC[C@]2(C)[C@@H]([C@H](C)CCCC(C)C)CC[C@@H]12	yes (1)
CC(Cc1ccc(O)c(O)c1)C(C)Cc1ccc(O)c(O)c1 (centres undefined)	yes (1)
COc1ccc(-c2ccc3c(N4CCOC[C@@H]4C)nc(N4CCOC[C@@H]4C)nc3n2)cc1CO	yes (1)
Cc1c(N)nc([C@H](CC(N)=O)NC[C@@H](N)C(N)=O)nc1C(=O)N[C@H](C(=O)N[C@@H](C)[C@H](O)[C@@H](C)C(=O)N[C@@H](C(=O)NCCc1nc(-c2nc(C(=O)NCCC[S+](C)C)cs2)cs1)[C@@H](C)O)C(O[C@H]1O[C@H](CO)[C@H](O)[C@@H](O)[C@H]1O[C@H]1O[C@H](CO)[C@@H](O)[C@H](OC(N)=O)[C@@H]1O)c1cnc[nH]1 (some centres undefined)	yes (1)
C=CC(=O)N1CCC(Oc2cc3c(Nc4ccc(Cl)c(Cl)c4F)ncnc3cc2OC)CC1	yes (1)

----------
- method notes: qHTS for differential inhibitors of proliferation of Plasmodium falciparum line W2 (AID 1883);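 also: potency is read from the fitted curve at half-maximal effect; parasites grown with compound for 72 h before lysis and staining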
- experimental conditions: Plasmodium falciparum W2 proliferation inhibition; series mostly up to 28.7 µM
Inconclusive results are not listed. Calls of active or inactive are those of the source. The call rests on the fitted dose curve; in most records, active means well fitted curve in the direction sought with a large enough effect; inconclusive means small, poorly fitted or top-dose-only effect, or another doubt; inactive means no such curve, though single readings can be large or run the other way.

compound	Potency
CCC(CO)NC(=O)[C@@H]1C=C2c3cccc4[nH]cc(c34)C[C@H]2N(C)C1 (stereo not given in full)	12.6 µM (active)
C[C@]12CC[C@@H](O)CC1CCC1C2CC[C@]2(C)C(=O)CC[C@@H]12 (stereo not given in full)	10 µM (active)
CC1Cc2cc3c(cc2C(c2ccc(N)cc2)=NN1)OCO3 (stereo not given)	2.24 µM (active)
CN1CCC23CCCC[C@H]2C1Cc1ccc(O)cc13 (stereo not given in full)	1.58 µM (active)
NCC#Cc1ccccc1	12.6 µM (active)
